System: NDR1;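 further: KINOMEscan kinase panel screen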
Construct: gene STK38
Measurement parameters: concentration: 1 μM, replicates: in singlicate; n = 1
Observation type: %Inh (%)
Numbers only, in %.

Example cases with answers are listed next.
Entry under review: CN(C(=O)c1ccc(-c2cc(-c3c[nH]nc3-c3ccccn3)ccn2)cc1)C1CCOCC1 [GW810083] . Reported %Inh? 3

Entry under review: O=C(Nc1n[nH]c2cc(-c3cccc(F)c3)ccc12)C1CC1 [SB-735464] . Reported %Inh? 25

Entry under review: C[C@@H](Oc1cc(-n2cnc3ccc(NC(=O)NC(C)(C)C)cc32)sc1C(N)=O)c1ccccc1Cl [GSK346294] . Reported %Inh? 17

Entry under review: Fc1ccc(-c2ncn(CCCN3CCOCC3)c2-c2ccccn2)cc1 [SB-211742] . Reported %Inh? 13

Entry under review: O=c1cc(N2CCOCC2)nc2n(Cc3cccc(F)c3)ccn12 [GSK2297430] . Reported %Inh? 0

// each compound listed below needs its %Inh
1. CN1c2ccc(CNc3ccc(F)cc3)cc2-c2c(cnn2C)S1(=O)=O
2. CCc1nc(-c2cccc(C)c2)c(-c2ccnc(NCc3ccccc3)c2)s1
3. Cc1c(Cn2c(C)nn3c(=O)cc(N4CCOC(C)C4)nc23)cccc1C(F)(F)F (stereo not drawn) [GSK2344444]
4. COc1cc2c(cc1OC[C@@H](O)CO)ncc1c3ccc(C#N)cc3[nH]c21

1: 16; 2: 0; 3: 0; 4: 62
